The values you see were collected from paper PMC9610434.

TARGET_OF_ASSAY: S. pneumoniae FtsZ (SpnFtsZ) (Streptococcus pneumoniae)
Sequence (A0A0H2ZNE0 whole entry): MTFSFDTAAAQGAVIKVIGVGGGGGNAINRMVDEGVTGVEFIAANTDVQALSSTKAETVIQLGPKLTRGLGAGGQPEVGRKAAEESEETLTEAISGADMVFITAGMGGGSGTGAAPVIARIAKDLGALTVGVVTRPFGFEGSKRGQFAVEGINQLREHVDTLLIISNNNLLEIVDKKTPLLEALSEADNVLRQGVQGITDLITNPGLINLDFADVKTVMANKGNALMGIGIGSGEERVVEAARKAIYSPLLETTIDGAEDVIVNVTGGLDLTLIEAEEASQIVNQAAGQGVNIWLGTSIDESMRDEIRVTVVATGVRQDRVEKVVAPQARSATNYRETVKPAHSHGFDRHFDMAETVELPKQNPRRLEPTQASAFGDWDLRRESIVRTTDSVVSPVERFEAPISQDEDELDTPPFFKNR
METHOD_NOTES: Binding to SpnFtsZ by tryptophan fluorescence
METRIC: Kd (nM)
// return numeric value only (unit: nM, not printed)

Look up Kd with S. pneumoniae FtsZ (SpnFtsZ) (Streptococcus pneumoniae) for this molecule: `O=C(CCc1ccc(O)cc1)[C@@H]1CCC[C@H](Cc2ccc(O)cc2)C1=O`
2200
